Hi there, I'd appreciate the recorded λmax for every entry that follows.
- assay method text: Absorption characteristics: transmission spectrum of near-infrared absorbing layer of NIR filter (UV-visible spectrophotometer)
- Assay type: physicochemical
- test context: transparent resin acrylic resin BR50, nd(B) 1.56, film thickness 2.3 μm

Examples with answers:
>  <compound>
CCCCCCCC(=O)Nc1cc2c(cc1C1=C([O-])C(=c3cc4c(cc3NC(=O)CCCCCCC)=[N+](C)C(C)C4(C)C)C1=O)C(C)(C)C(C)N2C (centres unmarked) [Example A11-24, reference compound]

>  <endpoint result>
705 nm

$$$$
>  <compound>
Cc1ccc(C)c(OCCCC(C)(C)C(=O)Nc2cc3c(cc2C2=C([O-])C(=c4cc5c(cc4NC(=O)C(C)(C)CCCOc4cc(C)ccc4C)=[N+](C)C(C)C5(C)C)C2=O)C(C)(C)C(C)N3C)c1 (centres unmarked) [Example A11-13]

>  <endpoint result>
700 nm

$$$$
>  <compound>
CC(CCC(C(=O)Nc1cc2c(cc1C1=C([O-])C(=c3cc4c(cc3NC(=O)C(CCC(C)CC(C)(C)C)C(C)CC(C)(C)C)=[N+](C)C(C)C4(C)C)C1=O)C(C)(C)C(C)N2C)C(C)CC(C)(C)C)CC(C)(C)C (centres unmarked) [Example A11-4]

>  <endpoint result>
705 nm

$$$$
>  <compound>
CCCCC(CC)C(=O)Nc1cc2c(cc1C1=C([O-])C(=c3cc4c(cc3NC(=O)C(CC)CCCC)=[N+](C(C)C)C(C)C4(C)C)C1=O)C(C)(C)C(C)N2C(C)C (centres unmarked) [Example A11-7]

>  <endpoint result>
712 nm

$$$$

From here, focus on the item given below.
Fill blank: measured λmax of the compound CCCCC(CC)C(=O)Nc1cc2c(cc1C1=C([O-])C(=c3cc4c(cc3NC(=O)C(CC)CCCC)=[N+](C)C(C)C4(C)C)C1=O)C(C)(C)C(C)N2C (centres unmarked) [Example A11-2] is ____.
706 nm

###

- assay method text: Absorption characteristics: transmission spectrum of near-infrared absorbing layer of NIR filter (UV-visible spectrophotometer)
- Type: physicochemical
- test context: transparent resin polycarbonate SP3810, nd(B) 1.63, film thickness 2.8 μm
metric: λmax (nm)
Give bare numbers, in nm.

>  <compound>
CCCCCCCCCCCC(=O)Nc1cc2c(cc1C1=C([O-])C(=c3cc4c(cc3NC(=O)CCCCCCCCCCC)=[N+](C)C(C)C4(C)C)C1=O)C(C)(C)C(C)N2C (stereo not drawn) [Example A11-25, reference compound]

>  <λmax (nm)>
710

$$$$
>  <compound>
Cc1ccc(C)c(OCCCC(C)(C)C(=O)Nc2cc3c(cc2C2=C([O-])C(=c4cc5c(cc4NC(=O)C(C)(C)CCCOc4cc(C)ccc4C)=[N+](C)C(C)C5(C)C)C2=O)C(C)(C)C(C)N3C)c1 (stereo not drawn)

>  <λmax (nm)>
705

$$$$
>  <compound>
CCCCC(CC)C(=O)Nc1cc2c(cc1C1=C([O-])C(=c3cc4c(cc3NC(=O)C(CC)CCCC)=[N+](C)C(C)C4(C)C)C1=O)C(C)(C)C(C)N2C (stereo not drawn)

>  <λmax (nm)>
710

$$$$
>  <compound>
CCCCCCCC(=O)Nc1cc2c(cc1C1=C([O-])C(=c3cc4c(cc3NC(=O)CCCCCCC)=[N+](C)C(C)C4(C)C)C1=O)C(C)(C)C(C)N2C (stereo not drawn) [Example A11-24, reference compound]

>  <λmax (nm)>
710

$$$$
>  <compound>
CC(CCC(C(=O)Nc1cc2c(cc1C1=C([O-])C(=c3cc4c(cc3NC(=O)C(CCC(C)CC(C)(C)C)C(C)CC(C)(C)C)=[N+](C)C(C)C4(C)C)C1=O)C(C)(C)C(C)N2C)C(C)CC(C)(C)C)CC(C)(C)C (stereo not drawn)

>  <λmax (nm)>
709

$$$$

From here, focus on the item given below.
Fill blank: measured λmax of the compound CCCC(C)(C)C(=O)Nc1cc2c(cc1C1=C([O-])C(=c3cc4c(cc3NC(=O)C(C)(C)CCC)=[N+](C)C(C)C4(C)C)C1=O)C(C)(C)C(C)N2C (stereo not drawn) is ____.
705

###

- assay method text: Solubility of dye to organic solvent
- Type: physicochemical
- test context: cyclohexanone, 50° C.; mass % of the dye to the mass of the entire solution
metric: Solubility to organic solvent: Cyclohexanone

Examples with answers:
>  <compound>
CC(=O)Nc1cc2c(cc1C1=C([O-])C(=c3cc4c(cc3NC(C)=O)=[N+](C)C(C)C4(C)C)C1=O)C(C)(C)C(C)N2C (stereo not drawn) [Example A11-20, reference compound]

>  <endpoint result>
<1.0% mass %

$$$$
>  <compound>
CCCCCC(=O)Nc1cc2c(cc1C1=C([O-])C(=c3cc4c(cc3NC(=O)CCCCC)=[N+](C)C(C)C4(C)C)C1=O)C(C)(C)C(C)N2C (stereo not drawn) [Example A11-22, reference compound]

>  <endpoint result>
<1.0% mass %

$$$$

From here, focus on the item given below.
Fill blank: measured Solubility to organic solvent: Cyclohexanone of the compound CCCC(=O)Nc1cc2c(cc1C1=C([O-])C(=c3cc4c(cc3NC(=O)CCC)=[N+](C)C(C)C4(C)C)C1=O)C(C)(C)C(C)N2C (stereo not drawn) [Example A11-21, reference compound] is ____.
<1.0% mass %

###

- assay method text: Absorption characteristics: transmission spectrum of near-infrared absorbing layer of NIR filter (UV-visible spectrophotometer)
- Format: physicochemical
- test context: transparent resin acrylic resin BR50, nd(B) 1.56, film thickness 2.3 μm
metric: 430 nm to 600 nm Average transmittance (%)
Answers are plain numbers, in %.

>  <compound>
Cc1ccc(C)c(OCCCC(C)(C)C(=O)Nc2cc3c(cc2C2=C([O-])C(=c4cc5c(cc4NC(=O)C(C)(C)CCCOc4cc(C)ccc4C)=[N+](C)C(C)C5(C)C)C2=O)C(C)(C)C(C)N3C)c1 (stereo not drawn) [Example A11-13]

>  <430 nm to 600 nm Average transmittance, %>
94.8

$$$$
>  <compound>
CCCC(CCC)C(=O)Nc1cc2c(cc1C1=C([O-])C(=c3cc4c(cc3NC(=O)C(CCC)CCC)=[N+](C)C(C)C4(C)C)C1=O)C(C)(C)C(C)N2C (stereo not drawn) [Example A11-1]

>  <430 nm to 600 nm Average transmittance, %>
95.1

$$$$
>  <compound>
CC(CCC(C(=O)Nc1cc2c(cc1C1=C([O-])C(=c3cc4c(cc3NC(=O)C(CCC(C)CC(C)(C)C)C(C)CC(C)(C)C)=[N+](C)C(C)C4(C)C)C1=O)C(C)(C)C(C)N2C)C(C)CC(C)(C)C)CC(C)(C)C (stereo not drawn) [Example A11-4]

>  <430 nm to 600 nm Average transmittance, %>
95

$$$$
>  <compound>
CCCC(C)(C)C(=O)Nc1cc2c(cc1C1=C([O-])C(=c3cc4c(cc3NC(=O)C(C)(C)CCC)=[N+](C)C(C)C4(C)C)C1=O)C(C)(C)C(C)N2C (stereo not drawn) [Example A11-14]

>  <430 nm to 600 nm Average transmittance, %>
94.7

$$$$
>  <compound>
CCCCCCCC(=O)Nc1cc2c(cc1C1=C([O-])C(=c3cc4c(cc3NC(=O)CCCCCCC)=[N+](C)C(C)C4(C)C)C1=O)C(C)(C)C(C)N2C (stereo not drawn) [Example A11-24, reference compound]

>  <430 nm to 600 nm Average transmittance, %>
93.7

$$$$
>  <compound>
CC(=O)Nc1cc2c(cc1C1=C([O-])C(=c3cc4c(cc3NC(C)=O)=[N+](C)C(C)C4(C)C)C1=O)C(C)(C)C(C)N2C (stereo not drawn) [Example A11-20, reference compound]

>  <430 nm to 600 nm Average transmittance, %>
93.1

$$$$
>  <compound>
CCCCC(CC)C(=O)Nc1cc2c(cc1C1=C([O-])C(=c3cc4c(cc3NC(=O)C(CC)CCCC)=[N+](C)C(C)C4(C)C)C1=O)C(C)(C)C(C)N2C (stereo not drawn) [Example A11-2]

>  <430 nm to 600 nm Average transmittance, %>
95

$$$$
>  <compound>
CCCCCCCCCCCC(=O)Nc1cc2c(cc1C1=C([O-])C(=c3cc4c(cc3NC(=O)CCCCCCCCCCC)=[N+](C)C(C)C4(C)C)C1=O)C(C)(C)C(C)N2C (stereo not drawn) [Example A11-25, reference compound]

>  <430 nm to 600 nm Average transmittance, %>
94.5

$$$$

From here, focus on the item given below.
Fill blank: measured 430 nm to 600 nm Average transmittance of the compound CCCCC(CC)C(=O)Nc1cc2c(cc1C1=C([O-])C(=c3cc4c(cc3NC(=O)C(CC)CCCC)=[N+](C(C)C)C(C)C4(C)C)C1=O)C(C)(C)C(C)N2C(C)C (stereo not drawn) [Example A11-7] is ____.
96.1

// data source = patent US10495796B2
